Cited source for all entries: ChEMBL document CHEMBL3286191

Give measured kcat for each item. Keep answers brief.
Tested on: Escherichia coli
Assay: Activity of purified Escherichia coli pantothenate kinase by spectrophotometry
Give bare numbers, in s⁻¹.

compound-string	unit-of-measurement	kcat
CC(C)(CO)[C@@H](O)C(=O)NCCC(=O)NCCS	s⁻¹	1.03

Please report kcat for every entry that follows.
1. CC(C)(CO)[C@@H](O)C(=O)NCCC(=O)NCCCc1ccccc1
2. C#CC[C@](C)(CO)[C@@H](O)C(=O)NCCC(=O)NCCCCC
3. CC(C)(CO)[C@@H](O)C(=O)NCCC(=O)Nc1ccncn1
4. CC(C)(CO)[C@@H](O)C(=O)NCCC(=O)NCc1ccccn1
5. CCCCCNC(=O)CCNC(=O)[C@H](O)C(C)(C)CO

stdout:
1. 1.13
2. 1.04
3. 1.44
4. 1.02
5. 0.93

Could you tell me kcat for each of these molecules? They are listed below.
1. CCCCCn1cc(CNC(=O)[C@H](O)C(C)(C)CO)nn1
2. CCCc1cn(CCCNC(=O)[C@H](O)C(C)(C)CO)nn1
3. CC(C)(CO)[C@@H](O)C(=O)NCCC(=O)NCc1ccncc1
4. CCCCCNC(=O)CCNC(=O)[C@H](O)[C@](C)(CC)CO
5. C=CC[C@](C)(CO)[C@@H](O)C(=O)NCCC(=O)NCCCCC

stdout:
[0.96, 0.49, 0.94, 1.17, 0.89]

====

System: Escherichia coli
Assay: Activity of purified Escherichia coli pantothenate kinase by spectrophotometry
measured-quantity: Km

Worked examples follow.
compound	target-of-assay	Km
CCCCCNC(=O)CNC(=O)CCNC(=O)[C@H](O)C(C)(C)CO	Escherichia coli	120 µM
C=CC[C@](C)(CO)[C@@H](O)C(=O)NCCC(=O)NCCCCC	Escherichia coli	590 µM
CCCC(=O)NCCNC(=O)CCNC(=O)[C@H](O)C(C)(C)CO	Escherichia coli	240 µM
CC(C)(CO)[C@@H](O)C(=O)NCCC(=O)Nc1ccncn1	Escherichia coli	450 µM
C#CC[C@](C)(CO)[C@@H](O)C(=O)NCCC(=O)NCCCCC	Escherichia coli	110 µM
CC(C)(CO)[C@@H](O)C(=O)NCCC(=O)Nc1ccccc1	Escherichia coli	43 µM

Hi team, please reply with Km for each item in this list.
1. CC(C)(CO)[C@@H](O)C(=O)NCCC(=O)NCCCN1CCOCC1
2. CC(C)(CO)[C@@H](O)C(=O)NCCC(=O)NCc1ccccn1
3. CCCCCNC(CNC(=O)[C@H](O)C(C)(C)CO)C(=O)O (stereo partly drawn)
4. CC(C)(CO)[C@@H](O)C(=O)NCCC(=O)NCCc1ccccn1
5. CC(C)(CO)[C@@H](O)C(=O)NCCC(=O)NCc1ccncc1

stdout:
1. 350 µM
2. 50 µM
3. 700 µM
4. 110 µM
5. 130 µM

====

System: Escherichia coli
Test: Ratio of kcat to Km for purified Escherichia coli pantothenate kinase by spectrophotometry
Threshold 5000 M⁻¹ s⁻¹. kcat/Km below it: true. kcat/Km at it or above: false.

compound	qualitative-label
CC(C)(CO)[C@@H](O)C(=O)NCCC(=O)NCc1ccccn1	false
CCCCCNC(=O)CCNC(=O)[C@H](O)C(CC)(CC)CO	true
CC(C)(CO)[C@@H](O)C(=O)NCCC(=O)NCCN1CCNCC1	true
CCCc1cn(CCCNC(=O)[C@H](O)C(C)(C)CO)nn1	true
CCCCCNC(=O)CNC(=O)CCNC(=O)[C@H](O)C(C)(C)CO	false
CC(C)(CO)[C@@H](O)C(=O)NCCC(=O)NCc1ccccc1	false
CC(C)(CO)[C@@H](O)C(=O)NCCC(=O)NCCCc1ccccc1	false
CC(C)(CO)[C@@H](O)C(=O)NCCC(=O)NCc1cccnc1	false

stdin: Dear reviewer, please state whether CC(C)(CO)[C@@H](O)C(=O)NCCC(=O)NCC1CCNCC1 has kcat/Km strictly beneath 5000 M⁻¹ s⁻¹.
stdout: true

stdin: Lab note: confirm whether the reported kcat/Km for this compound is below 5000 M⁻¹ s⁻¹, equality not counting. compound: CC(C)(CO)[C@@H](O)C(=O)NCCC(=O)O
stdout: false

stdin: Hello, I'm reviewing records and need to know if kcat/Km of CC(C)(CO)[C@@H](O)C(=O)NCCC(=O)NCCc1ccccn1 is below 5000 M⁻¹ s⁻¹. Could you check?
stdout: false

stdin: Hello, I'm reviewing records and need to know if kcat/Km of CCCC(=O)NCCNC(=O)CCNC(=O)[C@H](O)C(C)(C)CO is below 5000 M⁻¹ s⁻¹. Could you check?
stdout: true

stdin: Criterion: kcat/Km strictly below 5000 M⁻¹ s⁻¹. Is it met by CC(C)(CO)[C@@H](O)C(=O)NCCC(=O)NCCS ?
stdout: false

stdin: Quick check: kcat/Km of C=CC[C@](C)(CO)[C@@H](O)C(=O)NCCC(=O)NCCCCC under 5000 M⁻¹ s⁻¹?
stdout: true
